Target: T1, CD25 (R&D systems cat. #223-2A/CF) (UniProt P01589 22-213, limits assumed)
T1 construct: Bought soluble protein
T1 sequence (looked up): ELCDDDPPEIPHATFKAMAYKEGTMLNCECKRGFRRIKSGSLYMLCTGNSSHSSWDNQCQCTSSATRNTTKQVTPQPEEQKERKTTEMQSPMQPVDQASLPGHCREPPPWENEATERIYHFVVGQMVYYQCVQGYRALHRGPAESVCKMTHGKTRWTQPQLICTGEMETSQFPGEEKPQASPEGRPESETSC
Experiment: Biacore (SPR); antibody captured on Protein A, CD25 injected
Give measured koff for each item. Keep answers brief.
Provide only the numeric value, understood in s⁻¹.

Query: // lookup koff for anti-CD25 H1.1L1 (antibody, V domains shown, Single variant in the anti-CD25 H1L1 background; also called VH A71R single variant) VH: QVQLVQSGAEVKKPGASVKVSCKASGYTFTSYRMHWVRQAPGQGLEWMGYINPSTGYTEYNQKFQGRVTITRDKSISTAYMELSRLRSDDTAVYYCARGGGVFDYWGQGTLVTVSS VL: QIVLTQSPATLSLSPGERATLSCRASSSISYMHWFQQKPGQSPQLLIYTTSNLASGVPARFSGSGSGTDYTLTISSLQPEDFAVYYCHQRSTYPLTFGSGTKLEIK
Result: 0.00031

Query: Then anti-CD25 H1L1 single variant VH I69M (antibody, IgG1, V domains shown, IgG1 format) VH: QVQLVQSGAEVKKPGASVKVSCKASGYTFTSYRMHWVRQAPGQGLEWMGYINPSTGYTEYNQKFQGRVTMTADKSISTAYMELSRLRSDDTAVYYCARGGGVFDYWGQGTLVTVSS VL: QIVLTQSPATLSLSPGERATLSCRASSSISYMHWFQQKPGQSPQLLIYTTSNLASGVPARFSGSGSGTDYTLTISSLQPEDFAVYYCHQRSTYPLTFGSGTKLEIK ?
Result: 0.00026

Query: Param item: anti-CD25 H1L1.7 (antibody, V domains shown, Single variant in the anti-CD25 H1L1 background; also called VL Q79E single variant) VH: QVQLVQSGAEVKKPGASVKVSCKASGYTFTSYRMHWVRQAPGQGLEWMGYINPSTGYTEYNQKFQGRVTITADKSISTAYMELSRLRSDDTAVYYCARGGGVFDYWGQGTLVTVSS VL: QIVLTQSPATLSLSPGERATLSCRASSSISYMHWFQQKPGQSPQLLIYTTSNLASGVPARFSGSGSGTDYTLTISSLEPEDFAVYYCHQRSTYPLTFGSGTKLEIK
Result: 0.00054
